Assay: Coloration of cephradine hydrate: absorbance at 450 nm
Format: physicochemical
Details: before stress stability test, crystallisation pH 4.80

Compound: CC1=C(C(=O)O)N2C(=O)[C@@H](NC(=O)[C@H](N)C3=CCC=CC3)[C@H]2SC1 [VI, cephradine hydrate]
A450 at t = 0: 0.021

Compound: CC1=C(C(=O)O)N2C(=O)[C@@H](NC(=O)[C@H](N)C3=CCC=CC3)[C@H]2SC1 [VII, cephradine hydrate]
A450 at t = 0: 0.017

Compound: CC1=C(C(=O)O)N2C(=O)[C@@H](NC(=O)[C@H](N)C3=CCC=CC3)[C@H]2SC1 [V, cephradine hydrate]
A450 at t = 0: 0.018

Compound: CC1=C(C(=O)O)N2C(=O)[C@@H](NC(=O)[C@H](N)C3=CCC=CC3)[C@H]2SC1 [IV, cephradine hydrate]
A450 at t = 0: 0.051
